Recorded normalized RNA/DNA level with ligand (log10) by entry
B1: library; a variant is named by its letters at N, in order (parent)
chain: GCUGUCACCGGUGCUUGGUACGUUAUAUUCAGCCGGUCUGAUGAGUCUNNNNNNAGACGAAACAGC

# Variants of: B1
# Assay info: normalized RNA/DNA level with ligand (relative to sTRSVctl = 100) (log10 (% of sTRSVctl)); HEK293T overexpressing SLC46A1; ligand concentration (+) RNA-Seq: 6 mM; higher = less ribozyme self-cleavage, higher mRNA level
# Setup conditions: with (6R,S)-folinic acid; ligand present: yes
No unit in the answer, please; the number alone is enough.

Macromolecule sequence | Recorded result
GCUGUCACCGGUGCUUGGUACGUUAUAUUCAGCCGGUCUGAUGAGUCUCAUCACAGACGAAACAGC [CAUCAC] | 2
GCUGUCACCGGUGCUUGGUACGUUAUAUUCAGCCGGUCUGAUGAGUCUUCACACAGACGAAACAGC [UCACAC] | 2.02
GCUGUCACCGGUGCUUGGUACGUUAUAUUCAGCCGGUCUGAUGAGUCUGGUUAGAGACGAAACAGC [GGUUAG] | 2

Fill blank: measured normalized RNA/DNA level with ligand (log10) of the variant GCUGUCACCGGUGCUUGGUACGUUAUAUUCAGCCGGUCUGAUGAGUCUCGUGUCAGACGAAACAGC [CGUGUC] is ____.
2.07

How about this variant: GCUGUCACCGGUGCUUGGUACGUUAUAUUCAGCCGGUCUGAUGAGUCUCAAUGGAGACGAAACAGC [CAAUGG]
1.98

How about this variant: GCUGUCACCGGUGCUUGGUACGUUAUAUUCAGCCGGUCUGAUGAGUCUACCUAUAGACGAAACAGC [ACCUAU]
2.05

How about this variant: GCUGUCACCGGUGCUUGGUACGUUAUAUUCAGCCGGUCUGAUGAGUCUUAGUACAGACGAAACAGC [UAGUAC]
2.01

How about this variant: GCUGUCACCGGUGCUUGGUACGUUAUAUUCAGCCGGUCUGAUGAGUCUACUGUUAGACGAAACAGC [ACUGUU]
2.01

How about this variant: GCUGUCACCGGUGCUUGGUACGUUAUAUUCAGCCGGUCUGAUGAGUCUAGGGAUAGACGAAACAGC [AGGGAU]
1.98

How about this variant: GCUGUCACCGGUGCUUGGUACGUUAUAUUCAGCCGGUCUGAUGAGUCUGUGCAGAGACGAAACAGC [GUGCAG]
2.01

How about this variant: GCUGUCACCGGUGCUUGGUACGUUAUAUUCAGCCGGUCUGAUGAGUCUUUCAAGAGACGAAACAGC [UUCAAG]
2.01

How about this variant: GCUGUCACCGGUGCUUGGUACGUUAUAUUCAGCCGGUCUGAUGAGUCUAUUCGGAGACGAAACAGC [AUUCGG]
2.04

How about this variant: GCUGUCACCGGUGCUUGGUACGUUAUAUUCAGCCGGUCUGAUGAGUCUACGGUGAGACGAAACAGC [ACGGUG]
2
